Assay: NCI Yeast Anticancer Drug Screen. Data for the bub3 strain (AID 167)
Conditions: S. cerevisiae bub3 mutant strain, at 50.0 µM, active compounds read high
Compounds without any hit were thinned out: in the full panel of roughly 79,000, 15% have a hit.
# key: entry, value: growth inhibition
Provide only the numeric value, understood in %.

Worked cases, growth inhibition given:
CC(C)(C)OC(=O)N[C@H]1CCN(C2CCCCC2)C1=O = -6.4
c1ccc2c(c1)[nH]c1ccccc12 = -5.5
CC(=O)NC(CCCCNC(=O)NCCCl)C(=O)NCc1ccccc1 (configuration not stated) = -12
CN(C)/C=N/c1cc(=O)n(C)c(=O)n1C = -18.1
O=C(N/N=C/c1ccc(O)cc1)C1CCCO1 (configuration not stated) = 2.95

Please give measured growth inhibition of the following entry: COc1ccc(C2CC(C)(O)Oc3cc4c(cc32)OCO4)cc1 (configuration not stated) 44.9

Please give measured growth inhibition of the following entry: c1ccc2nc3c(nc2c1)sc1nc2ccccc2n13 8.3

Please give measured growth inhibition of the following entry: CCCCN(CCCC)CC(O)c1cc(Cc2ccccc2)nc2c(Cl)cc(Cl)cc12 (configuration not stated) 95

Please give measured growth inhibition of the following entry: COc1ccc(N=C(C)C2C(=O)c3ccccc3C2=O)cc1 16.6

---

Test: NCI Yeast Anticancer Drug Screen. Data for the rad50 strain (AID 155);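 note: 0% = growth of vehicle-only cultures of the same strain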
Conditions: S. cerevisiae rad50 strain growth inhibition; at 50.0 µM
This is part of a sample that, as a whole, favours compounds with a hit. Of some 79,000 tested, about 15% had one in any assay. Activity calls are given as the source filed them. Cut-off read from the data, not from the text of the source: active = growth inhibition above about 70%; inactive = the rest.
// classify into true for active, false for inactive

COC(=O)c1cc(=O)c2c(=O)[nH]c(=O)[nH]c2[nH]1 = false
O=C(NC1CCC(CC2CCC(NC(=O)C34CC5CC(CC(C5)C3)C4)CC2)CC1)C12CC3CC(CC(C3)C1)C2 (stereo not given) = false

GET /call?item= CC(=O)c1ccncc1 returns the recorded outcome of this test. false

GET /call?item= CN(C)c1ccc(S(=O)c2ccc(N(C)C)cc2)cc1 returns the recorded outcome of this test. false

GET /call?item= COc1ccc(/C(C)=N/OC(=O)c2sc3ccccc3c2Cl)cc1CN1CCOCC1 returns the recorded outcome of this test. false

GET /call?item= Cc1cc(NS(=O)(=O)c2ccc(Nc3c4ccccc4nc4c(C(=O)NCCN(C)C)ccc(Cl)c34)cc2)no1 returns the recorded outcome of this test. false

GET /call?item= CCOC(=O)C(C)C(=O)NCc1ccccc1 (stereo not given) returns the recorded outcome of this test. false

GET /call?item= CCNC(=O)Nc1nc2ccccc2s1 returns the recorded outcome of this test. false

GET /call?item= Nc1ncnc2nc(SC3OC(CO)C(O)C(O)C3O)[nH]c12 (stereo not given) returns the recorded outcome of this test. false

GET /call?item= COC(=O)COC(=O)C1C(C(N)=O)N(CC(=O)OC)CCN1CC(=O)OC (stereo not given) returns the recorded outcome of this test. false

GET /call?item= C=C1C(=O)O[C@@H]2C3=C(C)C(=O)C=C[C@]3(C)CC[C@@H]12 returns the recorded outcome of this test. false

GET /call?item= CCOC(=O)CCC(NC(=O)c1ccc(N(C)C=O)cc1)C(=O)OCC (stereo not given) returns the recorded outcome of this test. false

GET /call?item= COC(=O)C(CC(=O)c1cc2c(cc1I)OCO2)Cc1cc(OC)c(OC)c(OC)c1I (stereo not given) returns the recorded outcome of this test. false

GET /call?item= O=C(CC(O)(C(F)(F)Cl)C(F)(F)Cl)c1cccc([N+](=O)[O-])c1 returns the recorded outcome of this test. true

GET /call?item= Nc1cc(Cl)c(F)cc1Cl returns the recorded outcome of this test. false

GET /call?item= COc1nc2c(c(=O)n1C)N(C(C)=O)C1C(N2)OCC(OC(C)=O)C1OC(C)=O (stereo not given) returns the recorded outcome of this test. false

GET /call?item= Nc1ccc(Sc2nnc(N)s2)cc1 returns the recorded outcome of this test. false

GET /call?item= CCOC(=O)C(C)(C)c1cn(C)c2ccccc12 returns the recorded outcome of this test. false

---

Experiment: NCI Yeast Anticancer Drug Screen. Data for the rad50 strain (AID 155);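 note: 0% = growth of vehicle-only cultures of the same strain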
Details: S. cerevisiae rad50 strain growth inhibition; at 50.0 µM; active compounds read high
Compounds without any hit were thinned out: in the full panel of roughly 79,000, 15% have a hit.
measurement_name: growth inhibition (%)
Provide only the numeric value, understood in %.

Worked cases, growth inhibition given:
CCCCNC(=O)Nc1nc2ccccc2s1 = 25.3
CC(=O)NC1=N/C(=C\c2ccc(Cl)cc2)C(=O)N1/C=C1\C(=O)Oc2ccccc2C1=O = 50

Please give measured growth inhibition of the following entry: O=[N+]([O-])c1ccc(N=Cc2ccccc2O)cc1 -19.7

Please give measured growth inhibition of the following entry: CC(C)c1ccc(C(C)(C)O)cc1 4.75

Please give measured growth inhibition of the following entry: c1ccc(N2CCN(c3ccccn3)CC2)nc1 -2.65

Please give measured growth inhibition of the following entry: CCOC(=O)c1nc2ccc(C(F)(F)F)cc2[nH]c1=O -23.9

Please give measured growth inhibition of the following entry: CCOc1ccc2c(c1)C(C)(C)CCC2(C)C 3.55

Please give measured growth inhibition of the following entry: CCCCC(N)=O -21.9

Please give measured growth inhibition of the following entry: Cc1ccc(N=Nc2ccc(N)cc2C)c(S(N)(=O)=O)c1 40.3

Please give measured growth inhibition of the following entry: O=S(=O)(c1ccc(Br)cc1)N1CCN(S(=O)(=O)c2ccc(Br)cc2)CC1 -24.4

Please give measured growth inhibition of the following entry: CCCCOC(=O)C1(C(=O)OCCCC)CC1 14.8

---

Assay: NCI Yeast Anticancer Drug Screen. Data for the rad50 strain (AID 155);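 note: 0% = growth of vehicle-only cultures of the same strain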
Conditions: S. cerevisiae rad50 strain growth inhibition; at 50.0 µM; active compounds read high
The panel holds about 79,000 compounds, 15% with a hit somewhere; the sample as a whole holds those more often.
measurement_name: growth inhibition (%)
Provide only the numeric value, understood in %.

CCCCn1c(N)n[nH]c1=S = 20.5
COC12C=CC(CC1)C1C(=O)C=CC(=O)C12 (stereo not drawn) = -36.5
CCCNC(C)C(C)O (stereo not drawn) = -5.9

Please give measured growth inhibition of the following entry: CC1(C)OC2OC(COC(=O)c3ccccc3)C(N3C(=O)c4ccccc4C3=O)C2O1 (stereo not drawn) 58.2

Please give measured growth inhibition of the following entry: O=C(NC1CCCCC1C1CCCCC1)c1ccc(Cl)cc1 (stereo not drawn) 1.55

---

Test: NCI Yeast Anticancer Drug Screen. Data for the bub3 strain (AID 167)
Conditions: S. cerevisiae bub3 mutant strain, at 50.0 µM, active compounds read high
The panel holds about 79,000 compounds, 15% with a hit somewhere; the sample as a whole holds those more often.
measurement_name: growth inhibition (%)
Provide only the numeric value, understood in %.

Please give measured growth inhibition of the following entry: O=Cc1ccc(/C=C2\NC(=O)NC2=O)cc1 -9.3

Please give measured growth inhibition of the following entry: COC1OCC(O)C(O)C1OC (stereo not given) -8.55

Please give measured growth inhibition of the following entry: COc1cc(-c2cc(=O)c3c(OC)c(OC)c(OC)cc3o2)c(OC)c(OC)c1OC -6.15

Please give measured growth inhibition of the following entry: COC(=O)c1nc(N)[nH]c(=O)c1CCCCCc1c(C(=O)OC)nc(N)[nH]c1=O -0.3

Please give measured growth inhibition of the following entry: c1ccc(C(c2ccccc2)c2ccccc2)cc1 -8.7

Please give measured growth inhibition of the following entry: COc1ccc(C2=Nc3ccccc3NC(=O)C2)cc1 -17.1

Please give measured growth inhibition of the following entry: CC(=O)OCC1OC(OC(C)=O)C(NC(=O)CNC(=O)OCc2ccccc2)C(OC(C)=O)C1OC(C)=O (stereo not given) -4.75

Please give measured growth inhibition of the following entry: CCC(C)NC(=O)c1cccc2c1-c1ccccc1C2=O (stereo not given) 25.2

Please give measured growth inhibition of the following entry: CCC(SC(C)=O)C(=O)O (stereo not given) -2.05

Please give measured growth inhibition of the following entry: N#Cc1nc(/C=C/c2nc(C#N)c(N)o2)oc1N 8.4

---

Assay: NCI Yeast Anticancer Drug Screen. Data for the mlh1 rad18 strain (AID 175)
Conditions: S. cerevisiae mlh1 rad18 strain growth inhibition; at 50.0 µM; active compounds read high
Compounds without any hit were thinned out: in the full panel of roughly 79,000, 15% have a hit.
// Not met strictly below 10% in growth inhibition; Met otherwise

COc1ccc(C(=O)c2ccccc2)cc1OC = Not met

Say whether CCOC(=O)C(C)(C)c1ccc(OC)cc1 shows growth inhibition of 10% or more. Not met

Say whether Cc1c([O-])[n+]2cccc3ccn(c1=O)c32 shows growth inhibition of 10% or more. Met

Say whether [NH-]c1ncnc2c1N=C[N+]2=CC=CCO shows growth inhibition of 10% or more. Not met

Say whether O=C1NC2(CCCC2)C(=O)NC12CCCC2 shows growth inhibition of 10% or more. Not met

Say whether N#Cc1ccc(CC(O)(c2ccccc2)c2ccccc2)cc1 shows growth inhibition of 10% or more. Not met

Say whether COC(=O)N/N=C(/C)c1ccco1 shows growth inhibition of 10% or more. Met

Say whether Cc1ccc(-c2nc(SCc3ccc(Cl)cc3)[nH]c(=O)c2CCO)cc1 shows growth inhibition of 10% or more. Met

Say whether N#CC(c1ccccc1)[N+](=O)[O-] (centres undefined) shows growth inhibition of 10% or more. Met
